Assign MIC K. pneumoniae ATCC BAA-2146 (NDM-1) to each entry below.
- Tested on: Klebsiella pneumoniae ATCC BAA-2146 (NDM-1)
- ASSAY_TEXT: Antibacterial activity, MIC by dish double dilution method
- Format: cell-based
- ASSAY_CONTEXT: ATCC BAA-2146
- Description: The minimum inhibitory concentration (MIC) was determined by means of dish double dilution method using a Multipoint inoculator according to the CLSI recommended method. […] Agar medium is melted, and then quantitatively injected into the dish containing the drug solution, and mixed. […]
Where a SMILES comes first, the peptide text is derived from it. Bridges are numbered along the chain shown (N, C = ends). [ ]: non-standard residue; d: D form. The star is where a group is joined. Benzoyl(4-OPh) = O=C(c1ccc(Oc2ccccc2)cc1)*; dPhe(3-Cl) = N[C@H](Cc1cccc(Cl)c1)C(=O)O; dPhe(4-Cl) = N[C@H](Cc1ccc(Cl)cc1)C(=O)O; Heptanoyl(6-Me) = CC(C)CCCCC(=O)*; X2 = CC[C@H](C)CCCCC(=O)*; dDab = NCC[C@@H](N)C(=O)O; Octanoyl = CCCCCCCC(=O)*; Dab = NCC[C@H](N)C(=O)O
Return type: number; implicit unit µg/mL.

Indicate the recorded MIC K. pneumoniae ATCC BAA-2146 (NDM-1) value for this compound: CC(C)CCCCC(=O)N[C@@H](CCN)C(=O)N[C@H](C(=O)N[C@H](CCN)C(=O)N[C@H]1CCNC(=O)[C@H]([C@@H](C)O)NC(=O)[C@H](CCN)NC(=O)[C@H](CCN)NC(=O)[C@H]([C@@H](C)O)NC(=O)[C@@H](CC(C)C)NC(=O)[C@H](CCN)NC1=O)[C@@H](C)O [Compound 31] ({Heptanoyl(6-Me)}-[Dab]T[dDab][Dab][Dab][dL]T[Dab][Dab]T; lactam 4-C)
0.5

Tell us which MIC K. pneumoniae ATCC BAA-2146 (NDM-1) value is on record for CC[C@H](C)CCCCC(=O)N[C@@H](CCN)C(=O)N[C@H](C(=O)N[C@@H](CCN)C(=O)N[C@H]1CCNC(=O)[C@H]([C@@H](C)O)NC(=O)[C@H](CCN)NC(=O)[C@H](CCN)NC(=O)[C@H](CC(C)C)NC(=O)[C@@H](Cc2cccc(Cl)c2)NC(=O)[C@H](CCN)NC1=O)[C@@H](C)O [Compound 19] (X2-[Dab]T[Dab][Dab][Dab][dPhe(3-Cl)]L[Dab][Dab]T; lactam 4-C)
2

Give reported MIC K. pneumoniae ATCC BAA-2146 (NDM-1) value for CCCCCCCC(=O)N[C@@H](CCN)C(=O)N[C@H](C(=O)N[C@H](CO)C(=O)N[C@H]1CCNC(=O)[C@H]([C@@H](C)O)NC(=O)[C@H](CCN)NC(=O)[C@H](CCN)NC(=O)[C@H]([C@@H](C)O)NC(=O)[C@@H](Cc2ccccc2)NC(=O)[C@H](CCN)NC1=O)[C@@H](C)O [Compound 117] (Octanoyl-[Dab]T[dS][Dab][Dab][dF]T[Dab][Dab]T; lactam 4-C)
0.5

Let me know recorded MIC K. pneumoniae ATCC BAA-2146 (NDM-1) for CC[C@H](C)CCCCC(=O)N[C@@H](CCN)C(=O)N[C@H](C(=O)N[C@@H](CCN)C(=O)N[C@H]1CCNC(=O)[C@H]([C@@H](C)O)NC(=O)[C@H](CCN)NC(=O)[C@H](CCN)NC(=O)[C@H](CC(C)C)NC(=O)[C@@H](Cc2ccc(Cl)cc2)NC(=O)[C@H](CCN)NC1=O)[C@@H](C)O [Compound 16] (X2-[Dab]T[Dab][Dab][Dab][dPhe(4-Cl)]L[Dab][Dab]T; lactam 4-C) , thanks.
2

Supply recorded MIC K. pneumoniae ATCC BAA-2146 (NDM-1) for CC(C)C[C@@H]1NC(=O)[C@@H](Cc2ccccc2)NC(=O)[C@H](CCN)NC(=O)[C@@H](NC(=O)[C@H](CCN)NC(=O)[C@@H](NC(=O)[C@H](CCN)NC(=O)c2ccc(Oc3ccccc3)cc2)[C@@H](C)O)CCNC(=O)[C@H]([C@@H](C)O)NC(=O)[C@H](CCN)NC(=O)[C@H](CCN)NC1=O [Compound 8] ({Benzoyl(4-OPh)}-[Dab]T[Dab][Dab][Dab][dF]L[Dab][Dab]T; lactam 4-C) here.
4
